Measured TGI, listed per entry for reference.
System: NCI/ADR-RES ovarian
Experiment: NCI tumour cell line growth inhibition, 48 h
Where a SMILES comes first, the peptide text is derived from it. [ ]: non-standard residue; d: D form. The star is where a group is joined. ξ: configuration not given here. ξF = NC(Cc1ccccc1)C(=O)O; Cbz = O=C(OCc1ccccc1)*; Aib = CC(C)(N)C(=O)O

# molecule, assay-system, TGI
data = [
    ("COc1ccc2c(c1)O[C@@H]1C(O)Oc3cc(OC)c(OC)cc3[C@]1(O)C2=O (stereo partly drawn)", "NCI/ADR-RES ovarian", "> 100 µM"),
    ("CCOC(=O)/C(=C\\NCC(O)c1ccccc1)c1nc2ccccc2[nH]1 (stereo not drawn)", "NCI/ADR-RES ovarian", "67.9 µM"),
    ("C=C1C(=O)O[C@H]2[C@H]1CC/C(COC(=O)c1cc3cc(F)ccc3[nH]1)=C\\CC[C@@]1(C)O[C@@H]21", "NCI/ADR-RES ovarian", "5.39 µM"),
    ("S=C1c2ccccc2NC(=NC2CCCC2)C2CSCN12 (stereo not drawn)", "NCI/ADR-RES ovarian", "> 100 µM"),
    ("CCOC(=O)/C(O)=C1\\C(=O)N(C)C(=O)C1c1ccc(OC)c(OC)c1 (stereo not drawn)", "NCI/ADR-RES ovarian", "> 100 µM"),
    ("CC(C)(NC(=O)OCc1ccccc1)C(=O)NC(Cc1ccccc1)C(=O)O (stereo not drawn) (Cbz-[Aib]-[ξF]-OH)", "NCI/ADR-RES ovarian", "> 100 µM"),
    ("Cc1ccc(C(=O)OC[C@H]2CC[C@@H](n3cc(N(C)C4CCCCC4)c(=O)[nH]c3=O)O2)cc1", "NCI/ADR-RES ovarian", "56.7 µM"),
    ("COc1ccc(CCn2cnc3ccccc32)cc1", "NCI/ADR-RES ovarian", "> 100 µM"),
    ("CC(C)(CN)CN", "NCI/ADR-RES ovarian", "> 100 µM"),
    ("O=C(Nc1sccc1S(=O)(=O)c1ccccc1)c1cccnc1", "NCI/ADR-RES ovarian", "> 52.7 µM"),
    ("CC(=O)n1c(COS(C)(=O)=O)nc2ccccc21", "NCI/ADR-RES ovarian", "> 100 µM"),
    ("COC(=O)Cc1ccc2c(c1)Sc1ccc(CC(=O)OC)cc1N2C", "NCI/ADR-RES ovarian", "> 68.3 µM"),
    ("COC(=O)/C=C/c1ccccc1N=[S@](C)(=O)c1ccc(C)cc1", "NCI/ADR-RES ovarian", "72.5 µM"),
    ("OC(C1CCC=NN1C(O)(C(F)(F)F)C(F)(F)F)(C(F)(F)F)C(F)(F)F (stereo not drawn)", "NCI/ADR-RES ovarian", "> 10 µM"),
    ("COc1cc(-c2nc3cc(F)ccc3s2)ccc1O", "NCI/ADR-RES ovarian", "> 100 µM"),
    ("N#CCC1COc2ccccc2O1 (stereo not drawn)", "NCI/ADR-RES ovarian", "> 10 µM"),
    ("COc1ccc2c(c1)OC(c1cccnc1)C(c1ccccc1)C2=O (stereo not drawn)", "NCI/ADR-RES ovarian", "> 100 µM"),
    ("N#CC1=C2Sc3ccccc3N2[C@H](c2ccccc2)[C@H]2COC(=O)[C@@H]12", "NCI/ADR-RES ovarian", "> 100 µM"),
]

---

Test system: M14 melanoma
Assay: NCI tumour cell line growth inhibition, 48 h
Where a SMILES comes first, the peptide text is derived from it. [ ]: non-standard residue; d: D form. The star is where a group is joined. ξ: configuration not given here. ξF = NC(Cc1ccccc1)C(=O)O; Cbz = O=C(OCc1ccccc1)*; Aib = CC(C)(N)C(=O)O

# compound, TGI
measured = [
    ("CN1CC2=C(OC(N)=C(C#N)C2c2cccs2)/C(=C/c2cccs2)C1 (stereo unspecified)", "> 55.9 µM"),
    ("CC(C)(NC(=O)OCc1ccccc1)C(=O)NC(Cc1ccccc1)C(=O)O (stereo unspecified) (Cbz-[Aib]-[ξF]-OH)", "> 100 µM"),
    ("CC(=O)C(C(C)=O)=C1CCCC(O)O1 (stereo unspecified)", "> 100 µM"),
    ("CC1=NOC2(C1)/C(=N/O)CCC/C2=N\\O (stereo unspecified)", "> 100 µM"),
    ("C=CCn1c2c(c3ccccc3c1=O)C(=O)c1ccccc1-2", "> 100 µM"),
    ("COc1ccc(N[C@H](CS(=O)c2ccc(C)cc2)c2ccc(F)cc2)cc1 (stereo partly specified)", "> 100 µM"),
]

---

Tested on: NCI-H522 lung
Assay: NCI tumour cell line growth inhibition, 48 h
readout-type: TGI

# compound, recorded-result
data = [
    ("CC1=C(C(=O)Nc2ccccc2C)C(c2ccccc2)C(C(=O)Nc2ccccc2C)=C(C)N1", "> 100 µM"),
    ("CCOC(=O)/C(=C\\NCC(O)c1ccccc1)c1nc2ccccc2[nH]1 (configuration not stated)", "49 µM"),
    ("CC1OC(OCC2OC(Oc3c(-c4ccc(O)cc4)oc4cc(O)cc(O)c4c3=O)C(OC3OCC(O)(CO)C3O)C(O)C2O)C(O)C(O)C1O (configuration not stated)", "> 100 µM"),
    ("Cc1ccc2[nH]cc(-c3nc(-c4c[nH]c5ncccc45)cs3)c2c1", "> 100 µM"),
    ("CC(=O)OC[C@H]1O[C@@H](O[C@H]2[C@H](OC(C)=O)C=CO[C@@H]2COC(C)=O)C(OC(C)=O)[C@H]2OC(C)(C)O[C@H]21 (some centres not stated)", "35.7 µM"),
    ("O=C(NCCN(CCNC(=O)c1cccc(=O)n1O)CCN(CCNC(=O)c1cccc(=O)n1O)CCNC(=O)c1cccc(=O)n1O)c1cccc(=O)n1O", "> 100 µM"),
    ("Cc1ccc(OCC(=O)N2N=C(c3ccccc3)CC2(O)c2ccccc2)cc1 (configuration not stated)", "> 100 µM"),
    ("CCOc1cc2ncc(C#N)c(Nc3ccc(OCc4cccc(F)c4)c(Cl)c3)c2cc1NC(=O)CC1CCSS1 (configuration not stated)", "> 25 µM"),
    ("N#Cc1c(-c2nc3ccccc3s2)c(=O)oc2cc(O)ccc12", "> 100 µM"),
    ("COC(=O)/C=C/c1ccccc1N=[S@](C)(=O)c1ccc(C)cc1", "7.99 µM"),
    ("CC(C)Oc1c(-c2c(OC(C)C)c(=O)c2=O)c(=O)c1=O", "> 27.7 µM"),
    ("COc1cc(O)c([C@@H]2C[C@H](CCc3ccc(O)cc3)O[C@H](c3ccc(O)cc3)C2)c(O)c1C(=O)/C=C/c1ccc(O)cc1", "8.52 µM"),
    ("Oc1ccc(/C=C\\c2nnc(/C=C\\c3ccc(O)c(O)c3)s2)cc1O", "3.29 µM"),
    ("CCCCOC(=O)C(=O)C(CCC(=O)c1ccc(C)cc1)C(=O)C=C(C)C (configuration not stated)", "> 100 µM"),
    ("CC(=O)O/C=C\\OC1CCCC1(c1ccccc1)c1ccccc1 (configuration not stated)", "23.3 µM"),
    ("CN(C)c1ccc(/C=N/Nc2nc3ccccc3c(=O)n2-c2ccccc2)cc1", "> 100 µM"),
    ("CC(=O)n1c(COS(C)(=O)=O)nc2ccccc21", "> 100 µM"),
    ("COc1cc2c3c(n(C)c(=O)c2cc1OC)-c1cc2c(cc1/C3=C\\CCCCCN)OCO2", "> 100 µM"),
    ("CC(=O)O/C=C(/C=C/OC(C)=O)C(C/C=C(\\C)C#CC=C(C)C)OC(C)=O (configuration not stated)", "73.7 µM"),
    ("O=C(c1ccccc1)C(C(=O)c1ccccc1)C1(O)C(=O)c2ccccc2C1=O", "42.2 µM"),
    ("C=C1C(=O)O[C@H]2[C@H]1CC/C(COC(=O)c1cc3cc(F)ccc3[nH]1)=C\\CC[C@@]1(C)O[C@@H]21", "3.38 µM"),
    ("Cc1ccc(S(=O)(=O)N/C(=C\\C=C\\c2ccccc2)C(=O)C(C)(C)C)cc1", "> 100 µM"),
    ("Nn1c(-c2ccccc2)nc2ccc(Br)cc2c1=O", "> 100 µM"),
    ("COc1ccc(N=C2CSc3nnc(-c4cc(F)c(Cl)cc4Cl)n3N2)cc1", "0.885 µM"),
    ("COc1cc([C@H]2c3cc4c(cc3O[C@@]3(O)COC(=O)[C@@H]23)OCO4)cc(OC)c1OC", "> 100 µM"),
    ("CCNC(=O)Nc1cccc(C)n1", "> 100 µM"),
    ("COC(=O)c1cc(C)ccc1CC(Cc1cccc(C)c1)C(=O)OC (configuration not stated)", "> 100 µM"),
]
